EXPERIMENTAL TARGET: UniProtKB P37136
Sequence (P37136 whole entry): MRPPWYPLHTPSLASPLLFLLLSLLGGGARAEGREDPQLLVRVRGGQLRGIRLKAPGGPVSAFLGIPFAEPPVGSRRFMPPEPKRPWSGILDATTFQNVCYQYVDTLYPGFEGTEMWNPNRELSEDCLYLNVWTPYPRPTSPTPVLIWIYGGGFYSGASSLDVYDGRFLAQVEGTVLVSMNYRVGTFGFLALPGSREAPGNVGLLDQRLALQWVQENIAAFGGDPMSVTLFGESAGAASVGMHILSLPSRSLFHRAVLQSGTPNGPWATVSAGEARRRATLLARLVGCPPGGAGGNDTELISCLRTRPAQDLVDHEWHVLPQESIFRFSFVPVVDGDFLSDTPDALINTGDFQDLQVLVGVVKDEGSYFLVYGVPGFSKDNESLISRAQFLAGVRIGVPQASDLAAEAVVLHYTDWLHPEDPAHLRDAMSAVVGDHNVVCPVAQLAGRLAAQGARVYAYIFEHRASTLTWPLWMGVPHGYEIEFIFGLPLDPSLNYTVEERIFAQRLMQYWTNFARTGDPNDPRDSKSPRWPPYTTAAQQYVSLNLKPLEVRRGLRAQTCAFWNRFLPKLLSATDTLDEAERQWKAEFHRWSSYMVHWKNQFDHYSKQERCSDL
READOUT TYPE: pIC50
Please treat pIC50 as minus the base-10 logarithm of the molar concentration.

CCN(CCCCCN1C(=O)c2ccc([N+](=O)[O-])cc2C1=O)Cc1ccccc1OC	7.62

Fill in reported pIC50 for this entry: "COc1ccccc1CN1CCC(CCC(=O)c2ccc(N3CCCC3)cc2)CC1"
5.72

Complete the entry with pIC50 for "CCN(CCCCCN1C(=O)c2ccccc2C1=O)Cc1ccccc1"
5.47

Give pIC50 for the following compound: "CCN(CCCCCN1C(=O)c2ccc([N+](=O)[O-])cc2C1=O)Cc1cccc(OC)c1OC"
6.56

====

EXPERIMENTAL TARGET: Acetylcholinesterase (Rattus norvegicus)
Response field label takes Yes when IC50 is strictly below 900 nM and No in all other cases.

COc1ccc(C(=O)CCC2CCN(Cc3ccccc3)CC2)cc1OC	Yes
CCN(CCCCCN(C(C)=O)C(=O)/C=C/c1ccccc1)Cc1ccccc1	No
CCN(CCCCCN1C(=O)c2ccc([N+](=O)[O-])cc2C1=O)Cc1cccc(OC(=O)NC)c1	Yes
CCN(CCCCCCC(=O)c1ccc(OC)c(OC)c1)Cc1ccccc1OC	Yes

Below 900 nM on IC50? Entry "O=C1c2ccc([N+](=O)[O-])cc2C(=O)N1C1CCN(Cc2ccccc2)CC1"
No

Problem: For the molecule "CCCN(CCCCCN1C(=O)c2ccc([N+](=O)[O-])cc2C1=O)Cc1ccccc1" , is IC50 under 900 nM?
No

Just wondering, is IC50 of "O=C1c2ccc([N+](=O)[O-])cc2C(=O)N1CCC1CCN(Cc2ccccc2)CC1" below 900 nM?
Yes

Say whether its IC50 is strictly beneath 900 nM. Entry: "CCN(CCCCCC(=O)c1ccc(OC)c(OC)c1)Cc1ccccc1OC"
Yes

Dear colleague, could you confirm whether IC50 of "CN(CCCCCN1C(=O)c2ccc([N+](=O)[O-])cc2C1=O)Cc1ccccc1" falls below 900 nM? Thanks.
No

====

EXPERIMENTAL TARGET: Acetylcholinesterase (Rattus norvegicus)
Sequence (P37136 whole entry): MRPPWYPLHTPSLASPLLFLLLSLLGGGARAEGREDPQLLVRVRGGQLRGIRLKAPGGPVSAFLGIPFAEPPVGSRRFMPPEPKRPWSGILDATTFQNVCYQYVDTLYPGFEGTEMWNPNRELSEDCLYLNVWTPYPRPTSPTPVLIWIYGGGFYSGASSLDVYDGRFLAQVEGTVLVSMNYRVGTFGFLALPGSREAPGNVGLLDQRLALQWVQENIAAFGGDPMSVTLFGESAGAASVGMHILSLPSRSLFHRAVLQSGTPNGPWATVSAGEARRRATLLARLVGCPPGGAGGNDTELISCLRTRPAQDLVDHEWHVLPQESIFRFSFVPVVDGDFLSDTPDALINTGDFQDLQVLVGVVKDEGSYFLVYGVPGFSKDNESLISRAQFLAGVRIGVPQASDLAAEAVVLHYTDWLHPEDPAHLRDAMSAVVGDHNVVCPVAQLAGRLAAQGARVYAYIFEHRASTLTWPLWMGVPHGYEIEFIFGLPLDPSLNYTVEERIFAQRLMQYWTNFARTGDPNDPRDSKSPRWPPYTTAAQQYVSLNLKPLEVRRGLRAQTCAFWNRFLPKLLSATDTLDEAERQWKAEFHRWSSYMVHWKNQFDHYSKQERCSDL
READOUT TYPE: IC50 (nM)
Give the number; nM is assumed, so skip it.

Use the examples below as a reference point.
O=C1c2ccc([N+](=O)[O-])cc2C(=O)N1CC1CCN(Cc2ccccc2)CC1	3000
CCN(CCCCCN1C(=O)c2ccc([N+](=O)[O-])cc2C1=O)CCCc1ccccc1	161
CCN(CCCCCN1C(=O)c2ccc([N+](=O)[O-])cc2C1=O)CC1CCCCC1	1090
CCN(CCCCCC(=O)c1ccc(N2CCCC2)cc1)Cc1ccccc1	305
CCN(CCCCCN(C(C)=O)C(=O)/C=C/c1ccc([N+](=O)[O-])cc1)Cc1ccccc1	539
CCN(CCCCCNC(=O)/C=C/c1ccccc1)Cc1ccccc1	11800

State its IC50: CCN(CCCCCN1C(=O)C2CCCCC2C1=O)Cc1ccccc1 (configuration not stated)
18500

Read the entry "CN(CCCCCCN1C(=O)c2ccc([N+](=O)[O-])cc2C1=O)Cc1ccccc1" and write its reported IC50.
474

Supply IC50 value. Item: "CCN(CCCCCCN1C(=O)c2ccc([N+](=O)[O-])cc2C1=O)Cc1ccccc1"
607

Tell me measured IC50 for "CCN(CCCCCCCc1ccc(OC)c(OC)c1)Cc1ccccc1OC" please.
1070

For "O=C1c2ccccc2C(=O)N1CCC1CCN(Cc2ccccc2)CC1" , write its IC50.
30

For "CCN(CCCCCN1C(=O)c2ccc([N+](=O)[O-])cc2C1=O)CCc1ccccc1" , write its IC50.
770
